# Test system: A549 NSCLC
# METHOD_NOTES: NCI tumour cell line growth inhibition, 48 h
Reported GI50 values are given for each entry in this list.

The examples below pair each entry with its known result.
| COMPOUND | RESULT |
| --- | --- |
| CC(=O)[CH-]C(=O)c1ccccc1.CC(=O)[CH-]C(=O)c1ccccc1.CC1(C)C2CCC1(C)C([O-])C2.CC1(C)C2CCC1(C)C([O-])C2.[Ti+4] | 23.9 µM |
| O=C1NC(O)C(c2c[nH]c3ccccc23)=C1c1c[nH]c2ccccc12 (centres undefined) | > 25 µM |
| O=C(CN1CCN(CCCOc2c(-c3ccccc3)oc3ccccc3c2=O)CC1)Nc1ccc(Cl)cc1C(=O)c1ccccc1Cl | 6.37 µM |

query: Returns the measured GI50 for the input compound. Input: "O=C1/C(=C/c2ccccc2)CN(C(=O)c2cccnc2)C/C1=C\c1ccccc1"
result: 3.1 µM

The values you see were collected from PubChem BioAssay (NCI).
